This collection of values is drawn from patent US20150246136A1.

target: Mesothelin (SwissProt reference Q13421-3) (Homo sapiens, UniProt Q13421 37-622); experiment: cell-based or functional assay
measured quantity: IC50 (nM), HT29 meso+ cells, MTT proliferation assay
State just the number; it will be interpreted in nM.

// worked examples, IC50 (nM), HT29 meso+ cells, MTT proliferation assay included
binder	numeric readout
Example 138, conjugate of anti-mesothelin antibody MF-Ta (antibody, human IgG1, lambda, V domains shown, toxophore-linker on Cys sulfur, sites not given) VH: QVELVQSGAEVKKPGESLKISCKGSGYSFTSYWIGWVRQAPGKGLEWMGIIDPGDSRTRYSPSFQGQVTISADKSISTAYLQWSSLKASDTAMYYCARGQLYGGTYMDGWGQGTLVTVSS VL: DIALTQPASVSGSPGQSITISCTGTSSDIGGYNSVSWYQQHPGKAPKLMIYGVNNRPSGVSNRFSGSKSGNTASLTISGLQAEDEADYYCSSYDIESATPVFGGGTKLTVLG	0.3
Example 148, conjugate of anti-mesothelin antibody MF-Ta (antibody, human IgG1, lambda, V domains shown, toxophore-linker on Lys NH, sites not given) VH: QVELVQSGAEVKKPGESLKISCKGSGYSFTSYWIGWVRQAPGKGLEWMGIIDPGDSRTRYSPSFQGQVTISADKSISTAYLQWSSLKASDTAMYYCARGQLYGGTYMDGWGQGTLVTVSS VL: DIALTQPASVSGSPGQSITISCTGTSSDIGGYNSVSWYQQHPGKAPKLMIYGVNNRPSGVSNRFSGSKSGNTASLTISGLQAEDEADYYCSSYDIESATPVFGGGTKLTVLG	425
Example 59, conjugate of anti-mesothelin antibody MF-Ta (antibody, human IgG1, lambda, V domains shown, toxophore-linker on Lys NH, sites not given) VH: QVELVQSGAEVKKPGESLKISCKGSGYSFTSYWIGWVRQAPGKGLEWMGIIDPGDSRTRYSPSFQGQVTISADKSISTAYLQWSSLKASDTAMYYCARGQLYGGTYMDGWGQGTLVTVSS VL: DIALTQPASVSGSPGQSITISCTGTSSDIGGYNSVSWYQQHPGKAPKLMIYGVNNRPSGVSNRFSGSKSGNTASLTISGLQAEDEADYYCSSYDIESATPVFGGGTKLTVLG	1
Example 93, conjugate of anti-mesothelin antibody MF-Ta (antibody, human IgG1, lambda, V domains shown, toxophore-linker on Lys NH, sites not given) VH: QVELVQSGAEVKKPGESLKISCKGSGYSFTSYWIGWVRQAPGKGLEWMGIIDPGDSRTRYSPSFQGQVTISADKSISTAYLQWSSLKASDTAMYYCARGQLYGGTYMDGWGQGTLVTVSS VL: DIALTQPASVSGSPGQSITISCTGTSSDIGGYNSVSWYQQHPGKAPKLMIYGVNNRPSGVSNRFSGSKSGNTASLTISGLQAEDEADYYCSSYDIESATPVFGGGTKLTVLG	52
Example 73, conjugate of anti-mesothelin antibody MF-Ta (antibody, human IgG1, lambda, V domains shown, toxophore-linker on Cys sulfur, sites not given) VH: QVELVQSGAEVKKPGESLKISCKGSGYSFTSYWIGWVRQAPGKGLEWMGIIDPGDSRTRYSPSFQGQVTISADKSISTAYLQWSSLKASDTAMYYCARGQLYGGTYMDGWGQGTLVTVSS VL: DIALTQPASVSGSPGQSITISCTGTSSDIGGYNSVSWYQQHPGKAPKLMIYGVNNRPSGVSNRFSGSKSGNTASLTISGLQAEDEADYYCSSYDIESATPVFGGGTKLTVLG	25
Example 141, conjugate of anti-mesothelin antibody MF-Ta (antibody, human IgG1, lambda, V domains shown, toxophore-linker on Cys sulfur, sites not given) VH: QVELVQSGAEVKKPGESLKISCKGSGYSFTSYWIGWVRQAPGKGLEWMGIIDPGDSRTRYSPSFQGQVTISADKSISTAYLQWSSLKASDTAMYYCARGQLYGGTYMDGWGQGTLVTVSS VL: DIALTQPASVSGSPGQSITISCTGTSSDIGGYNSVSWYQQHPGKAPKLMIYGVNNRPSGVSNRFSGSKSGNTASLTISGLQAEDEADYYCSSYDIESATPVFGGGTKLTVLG	43

Q. I would be grateful if you could share the reported IC50 (nM), HT29 meso+ cells, MTT proliferation assay for Example 70, conjugate of anti-mesothelin antibody MF-Ta (antibody, human IgG1, lambda, V domains shown, toxophore-linker on Cys sulfur, sites not given) VH: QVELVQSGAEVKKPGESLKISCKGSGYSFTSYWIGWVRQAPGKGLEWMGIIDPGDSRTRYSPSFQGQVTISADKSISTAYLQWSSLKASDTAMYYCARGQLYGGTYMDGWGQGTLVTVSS VL: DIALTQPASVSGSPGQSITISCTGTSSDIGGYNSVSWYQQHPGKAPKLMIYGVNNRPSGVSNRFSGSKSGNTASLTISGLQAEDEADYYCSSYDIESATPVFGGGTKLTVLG .
A. 0.02

Q. Param item = Example 368, conjugate of anti-mesothelin antibody MF-Ta (antibody, human IgG1, lambda, V domains shown, toxophore-linker on Lys NH, sites not given) VH: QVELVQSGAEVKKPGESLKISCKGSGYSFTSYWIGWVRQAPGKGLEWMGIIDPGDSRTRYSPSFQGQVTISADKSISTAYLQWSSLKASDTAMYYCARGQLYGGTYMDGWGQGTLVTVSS VL: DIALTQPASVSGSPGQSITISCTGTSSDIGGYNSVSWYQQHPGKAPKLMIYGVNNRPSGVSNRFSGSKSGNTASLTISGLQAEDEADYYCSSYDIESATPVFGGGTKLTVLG ; retrieve measured IC50 (nM), HT29 meso+ cells, MTT proliferation assay.
A. 3.1

Q. Give its IC50 (nM), HT29 meso+ cells, MTT proliferation assay value. Item: Example 133, conjugate of anti-mesothelin antibody MF-Ta (antibody, human IgG1, lambda, V domains shown, toxophore-linker on Cys sulfur, sites not given) VH: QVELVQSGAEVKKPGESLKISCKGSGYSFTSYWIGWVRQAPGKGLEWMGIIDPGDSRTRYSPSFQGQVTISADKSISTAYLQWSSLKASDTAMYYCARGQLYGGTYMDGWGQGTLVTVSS VL: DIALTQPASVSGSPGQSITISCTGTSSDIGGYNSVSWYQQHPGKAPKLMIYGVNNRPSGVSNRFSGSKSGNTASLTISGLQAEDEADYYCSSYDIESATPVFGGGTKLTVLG
A. 2.1

Q. Given Example 142, conjugate of anti-mesothelin antibody MF-Ta (antibody, human IgG1, lambda, V domains shown, toxophore-linker on Cys sulfur, sites not given) VH: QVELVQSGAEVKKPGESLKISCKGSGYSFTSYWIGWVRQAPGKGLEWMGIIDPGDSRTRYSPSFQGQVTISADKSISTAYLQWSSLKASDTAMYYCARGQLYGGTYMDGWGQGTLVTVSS VL: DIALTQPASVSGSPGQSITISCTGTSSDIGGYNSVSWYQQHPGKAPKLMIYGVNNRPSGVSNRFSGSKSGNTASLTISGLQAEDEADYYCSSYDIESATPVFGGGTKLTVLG , state its recorded IC50 (nM), HT29 meso+ cells, MTT proliferation assay.
A. 0.27
